System: FTC-133 (Thyroid Gland Carcinoma)
Assay: combination Emax (second highest fraction inhibited in the dose matrix, 72 h); higher = more inhibition; extreme values may be limits of the assay
REPORTED_PROPERTY: combination Emax
Lab note: record just the number, no unit beside it.

So for CN(CCO)CC[C@H](CSc1ccccc1)Nc1ccc(S(=O)(=O)NC(=O)c2ccc(N3CCC([C@@H](O)c4ccccc4-c4ccc(Cl)cc4)CC3)cc2)cc1S(=O)(=O)C(F)(F)F [AZD4320] + CN(C)CCCOc1ccc(-c2ccc3ncc4c(c3c2)n(C2CCOCC2)c(=O)n4C)cn1 [AZD0156] (first compound max 1 µM, 7x7, partner max 1 µM) , the logged combination Emax turned out to be 0.44

So for CC1(C)CCC(CN2CCN(c3ccc(C(=O)NS(=O)(=O)c4ccc(NCC5CCOCC5)c([N+](=O)[O-])c4)c(Oc4cnc5[nH]ccc5c4)c3)CC2)=C(c2ccc(Cl)cc2)C1 [Venetoclax] + C[C@@H]1COCCN1C2=NC(=NC(=C2)C3(CC3)[S@](=N)(=O)C)C4=C5C=CNC5=NC=C4 [AZD6738] (first compound max 1 µM, 7x7, partner max 10 µM) , the logged combination Emax turned out to be 0.779

So for CC1(C)CCC(CN2CCN(c3ccc(C(=O)NS(=O)(=O)c4ccc(NCC5CCOCC5)c([N+](=O)[O-])c4)c(Oc4cnc5[nH]ccc5c4)c3)CC2)=C(c2ccc(Cl)cc2)C1 [Venetoclax] + C=CCn1c(=O)c2cnc(Nc3ccc(N4CCN(C)CC4)cc3)nc2n1-c1cccc(C(C)(C)O)n1 [AZD1775] (first compound max 1 µM, partner max 1 µM) , the logged combination Emax turned out to be 0.86

So for NC1(C(=O)N[C@@H](CCO)c2ccc(Cl)cc2)CCN(c2ncnc3[nH]ccc23)CC1 [Capivasertib] + CCN(CCO)CCCOc1ccc2c(Nc3cc(CC(=O)Nc4cccc(F)c4)[nH]n3)ncnc2c1 [AZD2811] (first compound max 10 µM, 7x7, partner max 1 µM) , the logged combination Emax turned out to be 0.643

So for Cn1cnc2c(F)c(Nc3ccc(Br)cc3Cl)c(C(=O)NOCCO)cc21 [Selumetinib] + C[C@@H]1COCCN1C2=NC(=NC(=C2)C3(CC3)[S@](=N)(=O)C)C4=C5C=CNC5=NC=C4 [AZD6738] (first compound max 10 µM, 7x7, partner max 10 µM) , the logged combination Emax turned out to be 0.724

So for COc1nnc2ccc(N3CCC(c4ccc(OCCN5CCN(C)C(=O)[C@H]5C)cc4)CC3)nn12 [AZD5153] + Cn1cnc2c(F)c(Nc3ccc(Br)cc3Cl)c(C(=O)NOCCO)cc21 [Selumetinib] (first compound max 1 µM, 7x7, partner max 10 µM) , the logged combination Emax turned out to be 0.592

So for Cc1cc2ncnn2cc1Nc1ncc2c(n1)n(C1CCOCC1)c(=O)n2C [AZD7648] + C[C@@H]1COCCN1C2=NC(=NC(=C2)C3(CC3)[S@](=N)(=O)C)C4=C5C=CNC5=NC=C4 [AZD6738] (first compound max 10 µM, 7x7, partner max 10 µM) , the logged combination Emax turned out to be 0.677

###

Test system: NCI-H209 (Small Cell Lung Carcinoma)
Experiment: combination Emax (second highest fraction inhibited in the dose matrix, 72 h); higher = more inhibition; extreme values may be limits of the assay
Field: combination Emax. Provide a value for each of the molecules that follow.
Lab note: record just the number, no unit beside it.

So for Cc1cc2ncnn2cc1Nc1ncc2c(n1)n(C1CCOCC1)c(=O)n2C [AZD7648] + CN(C)CCCOc1ccc(-c2ccc3ncc4c(c3c2)n(C2CCOCC2)c(=O)n4C)cn1 [AZD0156] (first compound max 10 µM, 7x7, partner max 1 µM) , the logged combination Emax turned out to be 0.237

So for NC1(C(=O)N[C@@H](CCO)c2ccc(Cl)cc2)CCN(c2ncnc3[nH]ccc23)CC1 [Capivasertib] + C[C@@H]1COCCN1C2=NC(=NC(=C2)C3(CC3)[S@](=N)(=O)C)C4=C5C=CNC5=NC=C4 [AZD6738] (first compound max 10 µM, 7x7, partner max 10 µM) , the logged combination Emax turned out to be 0.9

So for Cn1cnc2c(F)c(Nc3ccc(Br)cc3Cl)c(C(=O)NOCCO)cc21 [Selumetinib] + C=CCn1c(=O)c2cnc(Nc3ccc(N4CCN(C)CC4)cc3)nc2n1-c1cccc(C(C)(C)O)n1 [AZD1775] (first compound max 10 µM, partner max 1 µM) , the logged combination Emax turned out to be 0.858

So for CC1(C)CCC(CN2CCN(c3ccc(C(=O)NS(=O)(=O)c4ccc(NCC5CCOCC5)c([N+](=O)[O-])c4)c(Oc4cnc5[nH]ccc5c4)c3)CC2)=C(c2ccc(Cl)cc2)C1 [Venetoclax] + Cn1cnc2c(F)c(Nc3ccc(Br)cc3Cl)c(C(=O)NOCCO)cc21 [Selumetinib] (first compound max 1 µM, 7x7, partner max 3 µM) , the logged combination Emax turned out to be 0.436

So for COc1cccc2c1C(=O)c1c(O)c3c(c(O)c1C2=O)C[C@@](O)(C(=O)CO)C[C@@H]3O[C@H]1C[C@H](N)[C@H](O)[C@H](C)O1 [Doxorubicin] + Cc1cc2ncnn2cc1Nc1ncc2c(n1)n(C1CCOCC1)c(=O)n2C [AZD7648] (first compound max 1 µM, 7x7, partner max 10 µM) , the logged combination Emax turned out to be 0.993

So for COc1nnc2ccc(N3CCC(c4ccc(OCCN5CCN(C)C(=O)[C@H]5C)cc4)CC3)nn12 [AZD5153] + Cc1c2c(nn1C)CSCc1cc(n(C)n1)CSc1cc(c3ccccc3c1)OCCCc1c(C(=O)O)n(C)c3c-2c(Cl)ccc13 [AZD5991] (first compound max 1 µM, 7x7, partner max 1 µM) , the logged combination Emax turned out to be 0.981

So for C=CCn1c(=O)c2cnc(Nc3ccc(N4CCN(C)CC4)cc3)nc2n1-c1cccc(C(C)(C)O)n1 [AZD1775] + O=C(c1cc(Cc2n[nH]c(=O)c3ccccc23)ccc1F)N1CCN(C(=O)C2CC2)CC1 [Olaparib] (first compound max 1 µM, partner max 10 µM) , the logged combination Emax turned out to be 0.922
